Values from the supplement of paper PMC7125110

B1: glmS ribozyme (parent)
chain: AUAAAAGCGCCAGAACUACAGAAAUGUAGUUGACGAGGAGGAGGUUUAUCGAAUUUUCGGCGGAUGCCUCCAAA

- Variants of: B1
- assaySummary: self-cleavage kobs at 2500 uM GlcN6P; higher = faster cleavage; RNA array
- conditionsUsed: with glucosamine-6-phosphate
Variants at the floor of the assay were thinned out.
Lab note: compare self-cleavage kobs at 2500 uM GlcN6P against 0.0001 s⁻¹. Equal or greater, write class 1. Smaller, write class 0.

Take a look at these entries with their results.
- primarySequence: "AUAAAAGCGCCAGAAGUACAGAAAUGUAGUUGACGAGGAGGAGGUUUCUCGAAUUUUCGUCGGUUGCCUCCAAA [C16G A48C G60U A64U]"
  labelValue: "class 0"
- primarySequence: "AUAAAAGCGCCAGAACUACAGAAAUGUAGUUGACGAUGUGGAGCUUUAUGGAAUUUUCGGCGGAUGCCUUCAAA [G37U A39U G44C C50G C70U]"
  labelValue: "class 0"

Would you kindly look at the next entry?
Could you tell me if the measured self-cleavage kobs at 2500 uM GlcN6P of AUAAAAGCGCGCGAACUACAGAAAUGUAGUUGACGAGGAGGAGGUUUAUCGAAUUUUCGGCGGAUGCCUUCAAA [C11G A12C C70U] reaches 0.0001 s⁻¹ or more?
class 0
